Data provenance is the supplement of paper PMC11451515.

Test system: P12-Ichikawa
assay-summary: cell viability relative to DMSO control; higher = less cytotoxic
test-conditions: RPMI 5 mM glucose + 10% FBS; 48 h; 5.12 µM
I'd appreciate it if you could supply cell viability values for the items below.
Numbers only, in %.

Could you report cell viability for every entry in the following list?
1. Cn1cnc2c(F)c(Nc3ccc(Br)cc3F)c(C(=O)NOCCO)cc21
2. C[S+](=O)([O-])Nc1ccc([N+](=O)[O-])cc1Oc1ccccc1
3. CC(C)(O)CC[C@@H](O)[C@](C)(O)[C@H]1CC[C@@]2(O)C/3=C/C(=O)[C@@H]4C[C@@H](O)[C@@H](O)C[C@]4(C)[C@H]3CC[C@]12C
4. CNC(=O)c1ccc2cc(C3(O)CCn4cncc43)ccc2c1 (stereo not given)
5. COc1ccccc1OCC(O)COC(N)=O (stereo not given)
6. C[C@@H](Oc1cc(-c2cnn(C3CCNCC3)c2)cnc1N)c1c(Cl)ccc(F)c1Cl
7. Cc1coc2c1C(=O)C(=O)c1c-2ccc2c(C)cccc12

1. 75.5
2. 116
3. 88
4. 111
5. 118
6. 82.2
7. 111

Could you report cell viability for every entry in the following list?
1. COCC1(CO)C(=O)C2CCN1CC2 (stereo not given)
2. C[C@]12CC[C@@H]3c4ccc(O)cc4CC[C@H]3[C@@H]1[C@@H](O)[C@@H](O)[C@@H]2O
3. CC(C)(C#N)c1cc(Cn2cncn2)cc(C(C)(C)C#N)c1

1. 77.8
2. 126
3. 113

* * *

Test system: NOMO1
assay-summary: cell viability relative to DMSO control; higher = less cytotoxic
test-conditions: HPLM + 10% dialyzed FBS; 48 h; 0.00702 µM
reported-metric: cell viability (%)
Give bare numbers, in %.

- compound: "C1=C/COCc2cc(ccc2OCCN2CCCC2)Nc2nccc(n2)-c2cccc(c2)OCC/1"
  target-under-test: "NOMO1"
  cell viability / %: 123

Could you report cell viability for every entry in the following list?
1. C[C@H]1COC2=C3N1\C=C(C(O)=O)/C(=O)C3=CC(=C2N4CCN(C)CC4)F
2. N[S+]([O-])(=O)C1=CC=C(NC/2=C/C(=O)C3=CC=CC=C3C2=O)C=C1
3. COc1cc(F)c(F)c(Nc2ccc(I)cc2F)c1N[S+](=O)([O-])C1(C[C@H](O)CO)CC1
4. CC(C)C1NC(=O)C(NC(=O)C2=C3\N=C\4/C(=C(C)\C(=O)\C(=C4C(=O)NC5C(C)OC(=O)C(C(C)C)N(C)C(=O)CN(C)C(=O)C6CCCN6C(=O)C(NC5=O)C(C)C)N)OC3=C(C)C=C2)C(C)OC(=O)C(C(C)C)N(C)C(=O)CN(C)C(=O)C7CCCN7C1=O (configuration not stated)
5. N[S+]([O-])(=O)C1=C(Cl)C=C2\N=C/N[S+]([O-])(=O)C2=C1
6. OC(c1cc(C(F)(F)F)nc2c(C(F)(F)F)cccc12)C1CCCCN1 (configuration not stated)
7. CCN1CCN(CC1)CC(=O)NC2=CC=C(C3=C2C4=C(S3)C=CC=C4)C5=C6O\C(=C/C(=O)C6=CC=C5)N7CCOCC7
8. COc1cc(OC2CCN(C)CC2)ccc1Nc1ncc2c(n1)n(C1CCCC1)c(=O)n2C

[128, 111, 117, 7.42, 119, 115, 122, 107]

Could you report cell viability for every entry in the following list?
1. O=C1c2ccccc2-[n+]2ccc3c([nH]c4ccccc43)c21
2. S=C(NCc1ccc2c(c1)OCO2)N1CCN(c2ncnc3c2oc2ccccc23)CC1
3. CN(C)C1CCN(C(=O)c2ccc(NC(=O)Nc3nc(N4CCOCC4)nc(N4CCOCC4)n3)cc2)CC1
4. O=C(O)CCC1CCC(c2cc(F)ccc2F)([S+](=O)([O-])c2ccc(Cl)cc2)CC1 (configuration not stated)
5. COc1ccc([C@@H]2CC(=O)c3c(O)cc(O[C@@H]4O[C@H](CO[C@@H]5O[C@@H](C)[C@H](O)[C@@H](O)[C@H]5O)[C@@H](O)[C@H](O)[C@H]4O)cc3O2)cc1O
6. C[C@](Cc1c[nH]c2ccccc12)(NC(=O)OC1C2CC3CC(C2)CC1C3)C(=O)NC[C@H](NC(=O)CCC(=O)O)c1ccccc1 (some centres not stated)
7. ClC1=CC=C(C=C1)C(C#N)C2=C(Cl)C=C(C=C2Cl)N3\N=C/C(=O)NC3=O (configuration not stated)
8. Cc1nc2cnc3ccc(C#Cc4cccnc4)cc3c2n1-c1ccc(C(C)(C)C#N)cc1

[125, 124, 80, 137, 122, 130, 99.5, 82.3]

Could you report cell viability for every entry in the following list?
1. C[C@]12COC(=O)C[C@@H]1CC[C@@H]1[C@@H]2CC[C@@]2(C)[C@H]1CC[C@]2(C)O
2. CCOC(=O)N1CCN(/[N+]([O-])=N/Oc2ccc([N+](=O)[O-])cc2C#N)CC1
3. O=C(O)Cn1nnc(-c2cc(N3CCC(Oc4cc(F)ccc4Br)CC3)no2)n1
4. Clc1ccc(-c2nc3sccn3c2/C=N/OCc2ccc(Cl)c(Cl)c2)cc1
5. C[C@H]1C[C@@H]2[C@H](CC[C@@]3(C)[C@H]2CC[C@]3(OC(C)=O)C(C)=O)[C@@]\4(C)CCC(=O)\C=C14

1. 103
2. 109
3. 97.2
4. 128
5. 116

Could you report cell viability for every entry in the following list?
1. CCN(CC)CCOc1ccc(/C(=C(\Cl)c2ccccc2)c2ccccc2)cc1
2. C[C@@]12C(=O)OC(=O)[C@@]1(C)C1CCC2O1

1. 130
2. 107
